target: KAT5 Full length enzyme (Homo sapiens (Human)); assay: KAT5 assay (SAMDI-MS acetylation of H4 1-21 peptide); format: biochemical; details: Morrison equation fit; replicate number in parentheses; read-out: KAT5 Ki (nM) (replicate number)
Sequence (Q92993 whole entry): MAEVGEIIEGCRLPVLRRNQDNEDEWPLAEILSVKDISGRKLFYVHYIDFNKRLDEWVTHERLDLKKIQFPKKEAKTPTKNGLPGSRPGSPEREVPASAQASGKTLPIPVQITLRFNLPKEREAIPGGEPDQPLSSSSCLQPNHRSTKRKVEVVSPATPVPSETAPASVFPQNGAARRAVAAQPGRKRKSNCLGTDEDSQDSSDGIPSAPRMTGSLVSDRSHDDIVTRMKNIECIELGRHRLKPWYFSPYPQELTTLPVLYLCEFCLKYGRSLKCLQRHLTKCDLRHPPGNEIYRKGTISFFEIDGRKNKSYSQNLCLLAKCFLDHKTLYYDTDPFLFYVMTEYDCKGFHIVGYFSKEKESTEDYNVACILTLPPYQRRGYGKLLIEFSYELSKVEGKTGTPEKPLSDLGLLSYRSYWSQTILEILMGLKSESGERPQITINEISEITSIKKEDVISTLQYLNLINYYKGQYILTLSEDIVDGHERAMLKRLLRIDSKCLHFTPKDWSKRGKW
Record form. Attribute: log10(Ki). Fill in for each entry.
The figures below represent log10 of Ki, where Ki is stated in nM.

For the compound CCn1cnc(Nc2cc3onc(NS(=O)(=O)c4c(OC)cccc4OC)c3cc2OC)c1 [Example 75] , the measured log10(Ki) on KAT5 Full length enzyme (Homo sapiens (Human)) was 3.34

Tested on KAT5 Full length enzyme (Homo sapiens (Human)), the item COc1cc2c(NS(=O)(=O)c3c(OC)cccc3OC3CCC3)noc2cc1Nc1cc[nH]n1 [Example 33] showed log10(Ki) equal to 2.99

Log: KAT5 Full length enzyme (Homo sapiens (Human)), compound CCOc1cc(F)ccc1S(=O)(=O)Nc1noc2cc(Nc3cc(C4CC4)n[nH]3)c(F)c(OC)c12 [Example 76] , log10(Ki) = 3.06

Entry COc1cc2c(NS(=O)(=O)c3c(OC)cc([C@H]4COCCO4)cc3OC)noc2cc1Nc1cc(C2CC2)[nH]n1 [Example 146] under KAT5 Full length enzyme (Homo sapiens (Human)) had log10(Ki) of 1.50

Noted log10(Ki) for COc1cc2c(NS(=O)(=O)c3c(OC)cccc3OCC(F)F)noc2cc1Nc1cc[nH]n1 [Example 31] , tested on KAT5 Full length enzyme (Homo sapiens (Human)): 2.99

Tested on KAT5 Full length enzyme (Homo sapiens (Human)), the item COc1cc2c(NS(=O)(=O)c3c(OC)cccc3OC)noc2cc1Nc1nccc(C)n1 [Example 105] showed log10(Ki) equal to 3.61

Response field log10(Ki) (KAT5 Full length enzyme (Homo sapiens (Human))) for item COc1cccc(OC)c1S(=O)(=O)Nc1noc2cc(Nc3ccccn3)cc(OC)c12 [Example 18] : 3.73

Kindly note: KAT5 Full length enzyme (Homo sapiens (Human)), COc1cc2c(NS(=O)(=O)c3c(OC)cccc3OC)noc2cc1Nc1cc2n(n1)CC[C@H]2C (single isomer, unassigned) [Example 90] , log10(Ki) value reported: 2.40

Result for COc1cc2c(NS(=O)(=O)c3c(OC)cc(C4CN(C)CCO4)cc3OC)noc2cc1Nc1cc(C2CC2)n[nH]1 (single isomer, unassigned) [Example 153] , tested on KAT5 Full length enzyme (Homo sapiens (Human)), log10(Ki): 1.24

# value of log10(Ki), KAT5 Full length enzyme (Homo sapiens (Human)), item COc1ccccc1S(=O)(=O)Nc1noc2cc(Nc3cc[nH]n3)cc(OC)c12 [Example 09] = 2.81

Bench note, KAT5 Full length enzyme (Homo sapiens (Human)): COc1cc2c(NS(=O)(=O)c3c(OC)cccc3OC)noc2cc1Nc1cc(OC)n(C)n1 [Example 104] , log10(Ki) reads 3.02

Item: CCOc1cccc(OC)c1S(=O)(=O)Nc1noc2cc(Nc3cc(C(C)C)[nH]n3)c(OC)cc12 [Example 83] | System: KAT5 Full length enzyme (Homo sapiens (Human)) | log10(Ki): 2.70

Known value: KAT5 Full length enzyme (Homo sapiens (Human)) log10(Ki) of the compound COc1cc2c(NS(=O)(=O)c3c(OC)cccc3OC)noc2cc1Nc1cc(CC(C)C)n[nH]1 [Example 114] equals 2.49

COc1cc2c(NS(=O)(=O)c3c(OC)cccc3OC)noc2cc1Nc1cc(C2(C)CC2)n[nH]1 [Example 94] tested on KAT5 Full length enzyme (Homo sapiens (Human)) gave log10(Ki): 2.29

Measured on KAT5 Full length enzyme (Homo sapiens (Human)), COc1cc2c(NS(=O)(=O)c3c(OC)cccc3OC)noc2cc1Nc1cc(C2CCNCC2)n[nH]1 [Example 56] has a documented log10(Ki) of 4.35

Result for CCc1cc(Nc2cc3onc(NS(=O)(=O)c4ccc(-c5ccccc5)cc4)c3cc2OC)n[nH]1 [Example 130] , tested on KAT5 Full length enzyme (Homo sapiens (Human)), log10(Ki): 3.30

The observed log10(Ki) for COc1cc(Nc2cc3onc(NS(=O)(=O)c4c(OC)cccc4OC)c3cc2OC)n[nH]1 [Example 44] when tested with KAT5 Full length enzyme (Homo sapiens (Human)) stands at 3.00

The reported log10(Ki) value, KAT5 Full length enzyme (Homo sapiens (Human)), for COc1cc2c(NS(=O)(=O)c3c(OC)cccc3OC)noc2cc1Nc1cc(C2CC2)n(C)n1 [Example 103] reads 2.40

Measured log10(Ki) for this entry CCOc1cccc(OC)c1S(=O)(=O)Nc1noc2cc(Nc3cc[nH]n3)c(OC)cc12 [Example 30] on KAT5 Full length enzyme (Homo sapiens (Human)): 2.78

# value of log10(Ki), KAT5 Full length enzyme (Homo sapiens (Human)), item CCc1cc(Nc2cc3onc(NS(=O)(=O)c4c(OC)cccc4OC)c3cc2OC)[nH]n1 [Example 02] = 2.48

Value sought: log10(Ki), system KAT5 Full length enzyme (Homo sapiens (Human)), item COc1cc2c(NS(=O)(=O)c3c(OC)cccc3OC)noc2cc1Nc1cc(C(F)F)n[nH]1 [Example 115] . Result: 2.00

The observed log10(Ki) for COc1cc(F)ccc1S(=O)(=O)Nc1noc2cc(Nc3cc(C4CC4)n[nH]3)c(F)c(OC)c12 [Example 97] when tested with KAT5 Full length enzyme (Homo sapiens (Human)) stands at 2.90

Assay KAT5 Full length enzyme (Homo sapiens (Human)), sample COc1cccc(OC2CCC2)c1S(=O)(=O)Nc1noc2cc(Nc3cc(C4CC4)n[nH]3)c(F)c(OC)c12 [Example 98] , log10(Ki) read: 3.58

Query COc1cc2c(NS(=O)(=O)c3c(OC)cc(-c4nccc(CN(C)C)n4)cc3OC)noc2cc1Nc1cc(C2CC2)n[nH]1 [Example 222] on KAT5 Full length enzyme (Homo sapiens (Human)); log10(Ki) returned: 1.45

Lab note: compound COc1cccc(OC)c1S(=O)(=O)Nc1noc2cc(Nc3ncc[nH]3)cc(OC)c12 [Example 15] tested on KAT5 Full length enzyme (Homo sapiens (Human)); recorded log10(Ki) was 3.12

# CCOc1cc(C(F)F)ccc1S(=O)(=O)Nc1noc2cc(Nc3cc(C4CC4)n[nH]3)c(F)c(OC)c12 [Example 101] with KAT5 Full length enzyme (Homo sapiens (Human)): log10(Ki) is 3.09

Summary: COc1cc2c(NS(=O)(=O)c3cc(C)c(C)cc3OC)noc2cc1Nc1cc[nH]n1 [Example 25] , KAT5 Full length enzyme (Homo sapiens (Human)), log10(Ki) = 2.08

Observed log10(Ki), KAT5 Full length enzyme (Homo sapiens (Human)), CCOc1cc(C)c(F)cc1S(=O)(=O)Nc1noc2cc(Nc3cc(C(C)C)[nH]n3)c(OC)cc12 [Example 79] : 2.84

The reported log10(Ki) value, KAT5 Full length enzyme (Homo sapiens (Human)), for COc1cc2c(NS(=O)(=O)c3c(OC)cccc3OC)noc2cc1Nc1cc([C@H](C)O)n[nH]1 (single isomer, unassigned) [Example 86] reads 3.11

The measurements presented in this section are drawn from patent US20250122183A1.
